# Test system: OVCAR-3 ovarian
# Test Details: NCI tumour cell line growth inhibition, 48 h
TGI: recorded values

Worked cases, answers included:
Cc1cc(N(CCC#N)CCC#N)ccc1/C=C1N=C(/C=C\c2ccccc2)N(c2ccc(C(=O)O)cc2)C\1=O; > 100 µM
CC(C)NC(=O)OCCN=C1c2ccccc2C(Br)C(Br)c2ccccc21 (stereo unspecified); 35.6 µM
Cc1ccc(-n2cc(/C(N)=N/O)c3ccccc3c2=O)cc1; > 100 µM
CCOC(=O)C(=O)Nc1nc2ccc(OC)cc2s1; > 100 µM
Cc1nc(Nc2ccc(Cl)c(Cl)c2)sc1C(/C=C/c1ccc2c(c1)OCO2)=N/Nc1ccc([N+](=O)[O-])cc1[N+](=O)[O-]; > 100 µM

Could you now look at the following compound, please?
In: Give the reported value of TGI for this record: "CCn1c(-c2cc3ccccc3cc2OC(C)=O)n[nH]c1=S"
Out: 67.8 µM
